// log10 Vd lookup, one value per entry
Assay: Volume of distribution in Han-wistar rat at […], iv
Format: ADME
Conditions: in vivo, dose 1.5 µmol/kg
Please keep in mind that the values are log10 of Vd expressed in L/kg.

Look up log10 Vd for this molecule: CC(C)n1cc(-c2ccnc3[nH]c(C4CCN(CC(=O)N(C)C)CC4)cc23)ccc1=O
0.77

// same read-out, input: CNC(=O)CN1CCC(c2cc3c(-c4ccc(=O)n(C(C)C)c4)ccnc3[nH]2)CC1
0.41

Entry COc1cc(F)ccc1-c1ccnc2[nH]c(C3CCNCC3)cc12 please
1.00

Try CC(C)n1nc(-c2ccnc3[nH]c(C4CCN(CC(=O)N(C)C)CC4)cc23)ccc1=O next.
0.46

COc1cc(F)ccc1-c1ccnc2[nH]c(C3CCN(C)CC3)cc12 ?
0.72

Next: COc1cc(F)ccc1-c1ccnc2[nH]c([C@H]3CC[C@H](NC(C)=O)CC3)cc12
0.40

Now consider CC(C)n1cc(-c2ccnc3[nH]c(C4CCN(CC(=O)N5CCCCC5)CC4)cc23)ccc1=O and answer again.
0.91

Same thing, different molecule: COc1cc(F)ccc1-c1ccnc2[nH]c(C3CCN(CC(=O)N(C)C)CC3)cc12
0.36

Request: COc1cc(C(=O)N2CCCC2)ccc1-c1ccnc2[nH]c(C3CCN(C(C)=O)CC3)cc12
-0.05
